Experiment: gradient 5% acetonitrile 3 min, to 50% in 2 min, to 85% in 15 min, held 3 min, 100 µL/min
Settings: column: Zorbax Extend-C18 2.1 x 50 mm; eluents: water / acetonitrile, 0.1% formic acid
Assay Endpoint: RP-LC retention time (s)
Kindly answer with a numeric value in s, unit omitted.

- Compound: "Cc1cc(C)cc(C(=O)N2CCCC(C(=O)NC3CC3)C2)c1 (stereo not given)"
  Assay Endpoint: "RP-LC retention time"
  Unit Symbol: "s"
  Test Value: 714
- Compound: "Cc1cc(C)cc(NC(=O)C2CCCN(S(=O)(=O)c3cn(C(C)C)cn3)C2)c1 (stereo not given)"
  Assay Endpoint: "RP-LC retention time"
  Unit Symbol: "s"
  Test Value: 876
- Compound: "CCC(CC)NCCOC(=O)c1ccc([N+](=O)[O-])cc1"
  Assay Endpoint: "RP-LC retention time"
  Unit Symbol: "s"
  Test Value: 705
- Compound: "CN(C1CCCCC1)S(=O)(=O)c1ccc(NC(=O)c2ccco2)cc1"
  Assay Endpoint: "RP-LC retention time"
  Unit Symbol: "s"
  Test Value: 883
- Compound: "Cc1c(C(=O)N2CCN(C(C)C)CC2)cnn1-c1cc(-c2nc(C(C)(C)C)no2)ccn1"
  Assay Endpoint: "RP-LC retention time"
  Unit Symbol: "s"
  Test Value: 685

Incoming: Recorded RP-LC retention time for COc1ccc(NC(=O)N2CCCC2C(=O)Nc2ccc(C)c(Cl)c2)cc1 (stereo not given) , please?
Outgoing: 880

Incoming: Recorded RP-LC retention time for CCOc1ccccc1NC(=O)Cc1csc2nc(-c3ccccc3)cn12 , please?
Outgoing: 894

Incoming: Recorded RP-LC retention time for O=C(Nc1cccc(Cl)c1)c1cn(-c2cc(N3CCCC3)ncn2)cn1 , please?
Outgoing: 906

Incoming: Recorded RP-LC retention time for Cc1ccc(C(=O)N2CCC3(CC2)N=C(c2ccc(Cl)cc2)NO3)s1 , please?
Outgoing: 901

Incoming: Recorded RP-LC retention time for Cc1cnc(C2CCC2)n1CC1CCN(S(=O)(=O)c2ccccc2)CC1 , please?
Outgoing: 686

###

Assay: gradient 5% acetonitrile 3 min, to 50% in 2 min, to 85% in 15 min, held 3 min, 100 µL/min
Conditions: column: Zorbax Extend-C18 2.1 x 50 mm; eluents: water / acetonitrile, 0.1% formic acid
Assay Endpoint: RP-LC retention time (s)
Kindly answer with a numeric value in s, unit omitted.

- Compound: "CC(=O)Nc1ccc2c(c1)CN(C(=O)c1ccccc1Cl)C(C(=O)N1CCCC1)C2 (centres undefined)"
  Unit Symbol: "s"
  RP-LC retention time: 657
- Compound: "CCOc1nc2ccccc2nc1N1CCCC(C(=O)N2CCCC2)C1 (centres undefined)"
  Unit Symbol: "s"
  RP-LC retention time: 1070
- Compound: "COc1ccc(C(C)NC(=O)COc2ccc(NC(=O)C3CC3)cn2)cc1OC (centres undefined)"
  Unit Symbol: "s"
  RP-LC retention time: 689
- Compound: "CC(C)S(=O)(=O)c1ccc(C(=O)N2CC(=O)Nc3ccccc32)cc1"
  Unit Symbol: "s"
  RP-LC retention time: 653
- Compound: "Cc1ccc(-c2nnc(-c3cccc(S(=O)(=O)NCc4cccs4)c3)o2)cc1"
  Unit Symbol: "s"
  RP-LC retention time: 1030

Incoming: Recorded RP-LC retention time for Cc1ccn(CC(C)NC(=O)c2cn3ccccc3n2)n1 (centres undefined) , please?
Outgoing: 583

Incoming: Recorded RP-LC retention time for CC(C)N1CCN(C(=O)c2n[nH]c3c2CCCC3)CC1 , please?
Outgoing: 558

Incoming: Recorded RP-LC retention time for Cc1nc2ccn(Cc3cccnc3)c(=O)c2cc1C(=O)NCCc1c[nH]c2ccccc12 , please?
Outgoing: 626

Incoming: Recorded RP-LC retention time for COc1ccccc1CNC(=O)C1CCN(C(=O)C2Sc3ccccc3NC2=O)CC1 (centres undefined) , please?
Outgoing: 736
